Assay: Spectral characteristics: molar extinction coefficient and specific absorbance (UV spectrophotometry in ethyl acetate)
Assay type: physicochemical
Details: the 'at ...' part of the cell, 10 μg/ml
assay_metric: Wavelength of maximum molar extinction coefficient UVB

In the examples that follow, each entry is paired with its recorded Wavelength of maximum molar extinction coefficient UVB.
• CCCCC(CC)COc1ccc(-c2nc(-c3ccc(OC)cc3)nc(-c3ccc(OCC(CC)CCCC)cc3O)n2)c(O)c1 (stereo not shown) [Tinosorb S ®, reference compound] = at 310 nm
• Oc1ccc(-c2nnc(-c3ccc(-c4nnc(-c5ccc(O)cc5)c(-c5ccc(O)cc5)n4)cc3)nc2-c2ccc(O)cc2)cc1 = at 310 nm
• CCCCC(CC)COC(=O)C=Cc1ccc(OC)cc1 (stereo not shown) [Parsol MCX ®, reference compound] = at 310 nm
• CCCCCCCCCCCCc1ccc(-c2nnc(-c3ccc(-c4nnc(-c5ccc(CCCCCCCCCCCC)cc5)c(-c5ccc(CCCCCCCCCCCC)cc5)n4)cc3)nc2-c2ccc(CCCCCCCCCCCC)cc2)cc1 = at 300 nm

Next:
query: Write down Wavelength of maximum molar extinction coefficient UVB measured for item `CC(C)(C)c1ccc(-c2nnc(-c3ccc(-c4nnc(-c5ccc(C(C)(C)C)cc5)c(-c5ccc(C(C)(C)C)cc5)n4)cc3)nc2-c2ccc(C(C)(C)C)cc2)cc1`
result: at 300 nm

----------
Experiment: Spectral characteristics: molar extinction coefficient and specific absorbance (UV spectrophotometry in ethyl acetate)
Format: physicochemical
Details: A1cm^1%, 10 μg/ml, UVB band
assay_metric: Maximum specific absorbance UVB
Note: the reply should be a number with no unit written.

In the examples that follow, each entry is paired with its recorded Maximum specific absorbance UVB.
• CC(C)(C)c1ccc(-c2nnc(-c3ccc(-c4nnc(-c5ccc(C(C)(C)C)cc5)c(-c5ccc(C(C)(C)C)cc5)n4)cc3)nc2-c2ccc(C(C)(C)C)cc2)cc1 [WP104] = 1176
• CCCCCCCCCCCCc1ccc(-c2nnc(-c3ccc(-c4nnc(-c5ccc(CCCCCCCCCCCC)cc5)c(-c5ccc(CCCCCCCCCCCC)cc5)n4)cc3)nc2-c2ccc(CCCCCCCCCCCC)cc2)cc1 [WP107] = 757
• CCCCC(CC)COc1ccc(-c2nc(-c3ccc(OC)cc3)nc(-c3ccc(OCC(CC)CCCC)cc3O)n2)c(O)c1 (stereo not shown) [Tinosorb S ®, reference compound] = 751
• Oc1ccc(-c2nnc(-c3ccc(-c4nnc(-c5ccc(O)cc5)c(-c5ccc(O)cc5)n4)cc3)nc2-c2ccc(O)cc2)cc1 [WP35] = 490
• c1ccc(-c2nnc(-c3cccc(-c4nnc(-c5ccccc5)c(-c5ccccc5)n4)c3)nc2-c2ccccc2)cc1 [WP76] = 998
• CC(C)(C)CC(C)(C)c1cc(Cc2cc(C(C)(C)CC(C)(C)C)cc(-n3nc4ccccc4n3)c2O)c(O)c(-n2nc3ccccc3n2)c1 [Tinosorb M ®, reference compound] = 556

query: Write down Maximum specific absorbance UVB measured for item CCCCC(CC)COC(=O)C=Cc1ccc(OC)cc1 (stereo not shown) [Parsol MCX ®, reference compound]
result: 848

----------
Test: In vitro SPF measurement in a chemical solvent (Diffey and Robson)
Conditions: ethyl acetate, 10 μg/ml, transmittance 290-400 nm
The entries below are paired with their reported SPF.
Note: the reply should be a number with no unit written.

In the examples that follow, each entry is paired with its recorded SPF.
• CCCCC(CC)COC(=O)C=Cc1ccc(OC)cc1 (stereo not drawn) [Parsol MCX ®, reference compound] = 20.78
• CCCCC(CC)COc1ccc(-c2nc(-c3ccc(OC)cc3)nc(-c3ccc(OCC(CC)CCCC)cc3O)n2)c(O)c1 (stereo not drawn) [Tinosorb S ®, reference compound] = 76.19
• COc1ccc(C(=O)CC(=O)c2ccc(C(C)(C)C)cc2)cc1 [Parsol 1789 ®, reference compound] = 51.1
• CC(C)CCC(C)(C)c1ccc(-c2nnc(-c3ccc(-c4nnc(-c5ccc(C(C)(C)CCC(C)C)cc5)c(-c5ccc(C(C)(C)CCC(C)C)cc5)n4)cc3)nc2-c2ccc(C(C)(C)CCC(C)C)cc2)cc1 = 67.2
• CC(C)(C)CC(C)(C)c1cc(Cc2cc(C(C)(C)CC(C)(C)C)cc(-n3nc4ccccc4n3)c2O)c(O)c(-n2nc3ccccc3n2)c1 [Tinosorb M ®, reference compound] = 54.07

query: Write down SPF measured for item `CC(C)(C)c1ccc(-c2nnc(-c3ccc(-c4nnc(-c5ccc(C(C)(C)C)cc5)c(-c5ccc(C(C)(C)C)cc5)n4)cc3)nc2-c2ccc(C(C)(C)C)cc2)cc1`
result: 79.35

The origin of these recorded values is patent US7816520B2.
